SYSTEM UNDER TEST: DPP4 (Homo sapiens)
Sequence (P27487 whole entry): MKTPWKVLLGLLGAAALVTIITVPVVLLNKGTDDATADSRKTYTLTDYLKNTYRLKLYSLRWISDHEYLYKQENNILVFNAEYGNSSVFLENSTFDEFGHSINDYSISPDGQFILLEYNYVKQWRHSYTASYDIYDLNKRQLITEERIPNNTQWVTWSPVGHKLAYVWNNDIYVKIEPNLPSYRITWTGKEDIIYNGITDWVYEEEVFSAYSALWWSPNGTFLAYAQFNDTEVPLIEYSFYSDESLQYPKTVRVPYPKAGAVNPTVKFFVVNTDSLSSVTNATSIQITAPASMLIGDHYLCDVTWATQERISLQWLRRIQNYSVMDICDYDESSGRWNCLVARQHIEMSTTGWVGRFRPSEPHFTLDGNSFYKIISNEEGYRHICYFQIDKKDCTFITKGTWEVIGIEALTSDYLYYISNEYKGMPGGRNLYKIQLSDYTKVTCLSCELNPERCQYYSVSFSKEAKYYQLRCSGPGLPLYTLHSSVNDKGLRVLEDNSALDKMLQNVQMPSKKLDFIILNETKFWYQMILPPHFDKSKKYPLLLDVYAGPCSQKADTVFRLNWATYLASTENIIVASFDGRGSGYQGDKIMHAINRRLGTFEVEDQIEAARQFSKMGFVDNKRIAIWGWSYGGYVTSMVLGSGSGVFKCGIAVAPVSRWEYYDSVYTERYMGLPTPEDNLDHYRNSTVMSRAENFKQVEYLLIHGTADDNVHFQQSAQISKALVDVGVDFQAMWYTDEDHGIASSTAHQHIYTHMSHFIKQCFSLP
EXPERIMENT SUMMARY: DPP4 activity assay (DPP4 inhibitor screening assay kit, Cayman);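 further: fluorescence read at excitation 360 nm and emission 460 nm after the enzyme reaction ran 30 min at 37 °C in a 96-well plate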
Assay type: biochemical
Design: purchased Cayman Chemical, Ann Arbor, MI, USA
EXPERIMENTAL SETUP: 10 µM; control mean 100.0; Figure 1A raw data
REPORTED PROPERTY: DPP4 activity in library screen, Exp 3

• CC1(C)CCC[C@]2(C)[C@H]3CC(=O)O[C@]3(C)CC[C@@H]12 [Sclareolide] = 80.2
• O.O=c1c(O)c(-c2ccc(O)cc2O)oc2cc(O)cc(O)c12 [Morin Hydrate] = 79.4
• COc1cc(CCC(C)=O)ccc1O [Vanillylacetone] = 79.9

Attribution: paper PMC5428354
